A compilation of Ki values for Alpha-1D adrenergic receptor (Rattus norvegicus, UniProt P23944) from the published literature.

Q: Name the recorded Ki of the compound listed here: CCCCN1CCC(COC(=O)c2cc(Cl)c(N)c3c2OCCO3)CC1
Ans: > 1 µM

Q: Name the recorded Ki of the compound listed here: O=S(=O)(Nc1c(O)ccc2c1CCCC2C1=NCCN1)C(F)(F)F (stereo not drawn)
Ans: > 3.16 µM

Q: Name the recorded Ki of the compound listed here: CCS(=O)(=O)Nc1cccc(Sc2c[nH]cn2)c1
Ans: > 10 µM
